Target: mGluR5 (Homo sapiens, UniProt P41594)
Construct: expressed in transfected cells
Sequence (P41594 21-1180 isoform P41594-2 limits assumed): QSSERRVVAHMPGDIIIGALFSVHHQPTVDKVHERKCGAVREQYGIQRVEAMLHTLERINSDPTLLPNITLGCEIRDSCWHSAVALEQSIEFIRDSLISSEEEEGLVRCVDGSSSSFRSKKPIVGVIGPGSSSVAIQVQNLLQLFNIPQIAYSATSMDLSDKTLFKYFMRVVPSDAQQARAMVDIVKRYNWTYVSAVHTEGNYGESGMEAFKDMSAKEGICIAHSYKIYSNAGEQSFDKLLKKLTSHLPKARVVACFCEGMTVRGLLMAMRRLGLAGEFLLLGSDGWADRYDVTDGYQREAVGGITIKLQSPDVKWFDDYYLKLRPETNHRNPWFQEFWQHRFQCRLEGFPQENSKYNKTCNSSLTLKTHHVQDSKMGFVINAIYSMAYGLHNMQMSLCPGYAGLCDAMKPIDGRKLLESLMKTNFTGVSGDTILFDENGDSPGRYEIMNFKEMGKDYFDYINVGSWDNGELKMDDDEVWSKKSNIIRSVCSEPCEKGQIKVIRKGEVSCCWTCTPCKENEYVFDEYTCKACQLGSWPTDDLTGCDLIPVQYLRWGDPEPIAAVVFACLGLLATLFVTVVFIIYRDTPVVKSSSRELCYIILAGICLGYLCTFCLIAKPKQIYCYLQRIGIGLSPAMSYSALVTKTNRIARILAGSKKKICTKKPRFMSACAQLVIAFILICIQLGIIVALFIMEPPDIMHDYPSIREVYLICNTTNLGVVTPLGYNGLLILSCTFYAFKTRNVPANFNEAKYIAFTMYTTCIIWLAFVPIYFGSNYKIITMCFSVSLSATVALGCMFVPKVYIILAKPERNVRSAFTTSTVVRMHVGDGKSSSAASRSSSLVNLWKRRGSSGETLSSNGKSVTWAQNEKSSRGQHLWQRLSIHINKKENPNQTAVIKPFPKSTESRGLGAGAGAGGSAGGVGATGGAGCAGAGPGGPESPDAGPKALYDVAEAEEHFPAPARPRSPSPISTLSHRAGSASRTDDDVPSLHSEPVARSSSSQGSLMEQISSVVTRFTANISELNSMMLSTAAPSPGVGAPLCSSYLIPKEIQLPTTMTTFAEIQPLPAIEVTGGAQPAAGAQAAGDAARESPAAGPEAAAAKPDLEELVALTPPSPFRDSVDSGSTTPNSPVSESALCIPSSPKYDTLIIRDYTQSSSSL
Test: inhibition of the glutamate induced elevation of intracellular Ca2+-concentration
Format: cell-based
Conditions: inhibition of glutamate induced elevation of intracellular Ca2+-concentration at a concentration of 10 μM
Reported mGluR5 Activity inh. at 10 μM [%] values for the following compounds.
Field format: number, assumed %, no unit text.

Consider the worked cases shown below.
{"Compound": "O=C(c1ccc(Nc2ccc(Cl)cc2)nc1)N1C2CCC1CC(O)C2 (stereo not drawn)", "Reading": 51}
{"Compound": "Cc1ccc(Nc2ccc(C(=O)N3CCC[C@H](C)C3)cn2)cn1 [Compound 4.13a]", "Reading": 97}
{"Compound": "Cc1ccc(Nc2ncc(C(=O)N3CCCC4CCCC43)cc2Cl)cn1 (stereo not drawn)", "Reading": 98}
{"Compound": "CCC(CC)C1OCCCCN1C(=O)c1cnc(Nc2ccc(C)nc2)c(Cl)c1 (stereo not drawn)", "Reading": 95}
{"Compound": "C/C=C\\C1CCCCN1C(=O)c1cnc(Nc2ccc(C)nc2)c(Cl)c1 (stereo not drawn)", "Reading": 97}

Query: Name the recorded mGluR5 Activity inh. at 10 μM [%] of the item Cc1ccc(Nc2ccc(C(=O)N3CCCC(C)C3)cn2)cc1 (stereo not drawn) in your answer.
Response: 96

Origin of values: patent US20120309742A1
